Source: patent US12091425B2

The entries below are paired with their reported IC50.
# ASSAY_TARGET: Mcl-1/Bim interaction, recombinant human Mcl-1 (171-327) (Homo sapiens, UniProt Q07820)
# Construct: made in house
# Sequence (Q07820 171-327): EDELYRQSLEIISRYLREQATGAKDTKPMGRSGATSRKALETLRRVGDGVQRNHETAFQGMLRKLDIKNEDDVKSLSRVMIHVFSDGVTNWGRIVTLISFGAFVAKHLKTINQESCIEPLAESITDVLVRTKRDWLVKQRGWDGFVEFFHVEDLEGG
# ASSAY_NAME: Cell free Mcl-1: Bim Affinity Assay (Mcl-1 HTRF)
# Type: binding
# CONDITION_INFO: TR-FRET, 0.1 nM Mcl-1 (171-327), 0.05 nM biotin-Bim (51-76)
ENDPOINT_NAME: IC50

MOLECULE: O=C1NS(=O)(=O)[C@H](CO)CC/C=C/[C@H](O)[C@@H]2CC[C@H]2CN2C[C@@]3(CCCc4cc(Cl)ccc43)COc3ccc1cc32 (single isomer, unassigned) [Example 445]
MEASUREMENT: 0.461 nM

MOLECULE: CNC(=O)[C@@H](OC)[C@@H]1/C=C/[C@@H]2CC[C@H]2CN2C[C@@]3(CCCc4cc(Cl)ccc43)COc3ccc(cc32)C(=O)NS(=O)(=O)[C@H](C)[C@@H](C)C1.CNC(=O)[C@H](OC)[C@@H]1/C=C/[C@@H]2CC[C@H]2CN2C[C@@]3(CCCc4cc(Cl)ccc43)COc3ccc(cc32)C(=O)NS(=O)(=O)[C@H](C)[C@@H](C)C1 (mixture of isomers) [Example 362]
MEASUREMENT: 0.639 nM

---

# ASSAY_TARGET: Mcl-1/Bim interaction, recombinant human Mcl-1 (171-327) (Homo sapiens, UniProt Q07820)
# Construct: made in house
# ASSAY_NAME: Cell free Mcl-1: Bim Affinity Assay (Mcl-1 HTRF)
# Format: binding
# CONDITION_INFO: cell free Mcl-1:Bim TR-FRET, recombinant human Mcl-1 (171-327)
pIC50: −log10 of the molar value.
Entries and their pIC50 values follow.

COMPOUND: O=C1NS(=O)(=O)C[C@@H]2C[C@@H]2/C=C/[C@H](O)[C@@H]2CC[C@H]2CN2C[C@@]3(CCCc4cc(Cl)ccc43)COc3ccc1cc32 (single isomer, unassigned) [Example 784]
ASSAY_TARGET: Mcl-1/Bim interaction, recombinant human Mcl-1 (171-327) (Homo sapiens, UniProt Q07820)
pIC50: 8.57
--
COMPOUND: C[C@@H]1CC/C=C/[C@H](NC(=O)N(C)C)[C@@H]2CC[C@H]2CN2C[C@@]3(CCCc4cc(Cl)ccc43)COc3ccc(cc32)C(=O)NS1(=O)=O [Example 601]
ASSAY_TARGET: Mcl-1/Bim interaction, recombinant human Mcl-1 (171-327) (Homo sapiens, UniProt Q07820)
pIC50: 8.87
--
COMPOUND: C[C@H]1C/C=C/[C@H](O)[C@@H]2CC[C@H]2CN2C[C@@]3(CCCc4cc(Cl)ccc43)COc3ccc(cc32)C(=O)NS1(=O)=O (single isomer, unassigned) [Example 759]
ASSAY_TARGET: Mcl-1/Bim interaction, recombinant human Mcl-1 (171-327) (Homo sapiens, UniProt Q07820)
pIC50: 8.40
--
COMPOUND: CC(C)OC(=O)CC1C(C)CC=CC(O)C2CCC2CN2CC3(CCCc4cc(Cl)ccc43)COc3ccc(cc32)C(=O)NS1(=O)=O (single isomer, unassigned) [Example 567]
ASSAY_TARGET: Mcl-1/Bim interaction, recombinant human Mcl-1 (171-327) (Homo sapiens, UniProt Q07820)
pIC50: 8.43
--
COMPOUND: COC[C@H](O)C[C@@H]1CC/C=C/[C@H](OC)[C@@H]2CC[C@H]2CN2C[C@@]3(CCCc4cc(Cl)ccc43)COc3ccc(cc32)C(=O)NS1(=O)=O (single isomer, unassigned) [Example 652]
ASSAY_TARGET: Mcl-1/Bim interaction, recombinant human Mcl-1 (171-327) (Homo sapiens, UniProt Q07820)
pIC50: 8.62

---

# ASSAY_TARGET: Mcl-1/Bim interaction, recombinant human Mcl-1 (171-327) (Homo sapiens, UniProt Q07820)
# Construct: made in house
# ASSAY_NAME: Cell free Mcl-1: Bim Affinity Assay (Mcl-1 HTRF)
# Assay type: binding
# CONDITION_INFO: cell free Mcl-1:Bim TR-FRET, recombinant human Mcl-1 (171-327)
# if measured IC50 < 2 nM: yes  # else: no

MOLECULE: CC(=O)N[C@@H]1CCCCCS(=O)(=O)NC(=O)c2ccc3c(c2)N(C[C@@H]2CC[C@H]21)C[C@@]1(CCCc2cc(Cl)ccc21)CO3 (single isomer, unassigned)
CATEGORY: no
//
MOLECULE: O=C1NS(=O)(=O)CCCCC[C@@H](CO)[C@@H]2CC[C@H]2CN2C[C@@]3(CCCc4cc(Cl)ccc43)COc3ccc1cc32 (single isomer, unassigned) [Example 898]
CATEGORY: no
//
MOLECULE: CCC1CCCC(O)C2CCC2CN2CC3(CCCc4cc(Cl)ccc43)COc3ccc(cc32)C(=O)NS1(=O)=O (single isomer, unassigned)
CATEGORY: no
//
MOLECULE: COC1C=CCCC(C(C)(C)O)S(=O)(=O)NC(=O)c2ccc3c(c2)N(CC2CCC21)CC1(CCCc2cc(Cl)ccc21)CO3 (single isomer, unassigned)
CATEGORY: yes
//
MOLECULE: CO[C@H]1/C=C/C[C@H](C)[C@@H](CC(F)(F)F)S(=O)(=O)NC(=O)c2ccc3c(c2)N(C[C@@H]2CC[C@H]21)C[C@@]1(CCCc2cc(Cl)ccc21)CO3 (single isomer, unassigned)
CATEGORY: no
//
MOLECULE: C[C@@H]1[C@@H](C)C/C=C/[C@H](OC[C@@H](C)O)[C@@H]2CC[C@H]2CN2C[C@@]3(CCCc4cc(Cl)ccc43)COc3ccc(cc32)C(=O)NS1(=O)=O (single isomer, unassigned) [Example 528]
CATEGORY: yes
//
MOLECULE: O=C1NS(=O)(=O)CCC=CC(O)C2CCC2CN2CC3(CCCc4cc(Cl)ccc43)COc3ccc1cc32 (mixture of isomers)
CATEGORY: no
//
MOLECULE: NC(=O)OC[C@@H]1CC/C=C/[C@H](O)[C@@H]2CC[C@H]2CN2C[C@@]3(CCCc4cc(Cl)ccc43)COc3ccc(cc32)C(=O)NS1(=O)=O (single isomer, unassigned)
CATEGORY: yes
//
MOLECULE: O=C1NS(=O)(=O)C[C@@H](O)/C=C/C[C@H](O)[C@@H]2CC[C@H]2CN2C[C@@]3(CCCc4cc(Cl)ccc43)COc3ccc1cc32 (single isomer, unassigned)
CATEGORY: yes
//
MOLECULE: CC[C@@H]1CC/C=C/[C@H](O)[C@@H]2CC[C@H]2CN2C[C@@]3(CCCc4cc(Cl)ccc43)COc3cc(Cl)c(cc32)C(=O)NS1(=O)=O
CATEGORY: no

---

// reported pIC50 per item
# ASSAY_TARGET: Mcl-1/Bim interaction, recombinant human Mcl-1 (171-327) (Homo sapiens)
# Construct: made in house
# ASSAY_NAME: Cell free Mcl-1: Bim Affinity Assay (Mcl-1 HTRF)
# Format: binding
# CONDITION_INFO: cell free Mcl-1:Bim TR-FRET, recombinant human Mcl-1 (171-327)
pIC50: −log10 of the molar value.
ENDPOINT_NAME: pIC50

COMPOUND: C[C@H]1C/C=C/[C@H](OCC(=O)O)[C@@H]2CC[C@H]2CN2C[C@@]3(CCCc4cc(Cl)ccc43)COc3ccc(cc32)C(=O)NS(=O)(=O)[C@H]1C
MEASUREMENT: 9.85
--
COMPOUND: Cc1nnc(C[C@H]2CC/C=C/[C@H](O)[C@@H]3CC[C@H]3CN3C[C@@]4(CCCc5cc(Cl)ccc54)COc4ccc(cc43)C(=O)NS2(=O)=O)o1 (single isomer, unassigned)
MEASUREMENT: 9.22
--
COMPOUND: C[C@@H]1[C@@H](C)C/C=C/[C@H](OCCNS(C)(=O)=O)[C@@H]2CC[C@H]2CN2C[C@@]3(CCCc4cc(Cl)ccc43)COc3ccc(cc32)C(=O)NS1(=O)=O
MEASUREMENT: 9.17

---

# ASSAY_TARGET: Mcl-1/Bim interaction, recombinant human Mcl-1 (171-327) (Homo sapiens)
# Construct: made in house
# ASSAY_NAME: Cell free Mcl-1: Bim Affinity Assay (Mcl-1 HTRF)
# Format: binding
# CONDITION_INFO: TR-FRET, 0.1 nM Mcl-1 (171-327), 0.05 nM biotin-Bim (51-76)
pIC50: −log10 of the molar value.
Measured pIC50, listed per entry.

COMPOUND: CN(C)C(=O)[C@@H]1CC/C=C/[C@H](O)[C@@H]2CC[C@H]2CN2C[C@@]3(CCCc4cc(Cl)ccc43)COc3ccc(cc32)C(=O)NS1(=O)=O (single isomer, unassigned)
pIC50: 9.62
--
COMPOUND: CO[C@@H]1/C=C/CCS(=O)(=O)NC(=O)c2ccc3c(c2)N(C[C@@H]2CC[C@H]21)C[C@@]1(CCCc2cc(Cl)ccc21)CO3
pIC50: 7.64
--
COMPOUND: CC[C@@H]1CC/C=C/[C@H](OCc2ncn(C)n2)[C@@H]2CC[C@H]2CN2C[C@@]3(CCCc4cc(Cl)ccc43)COc3ccc(cc32)C(=O)NS1(=O)=O
pIC50: 9.60
